Below, each entry is listed with its recorded IC50.
- System name: human PDE1B enzyme (Homo sapiens (Human), UniProt Q01064)
- Measurement protocol: IMAP TR-FRET PDE1B enzymatic assay
- Type: biochemical
- Condition: negative log of half-maximal molar inhibitory concentration; 200 nM FAM-cAMP; values given as bins; read-out: PDE1b (pIC50) (converted)
Readout: IC50

* COCCN(Cc1cccc(OC)c1)C(=O)c1c(C)oc2ncnc(NC3(C)CC3)c12 | 10 to 100 nM
* Cc1oc2ncnc(NC3(C)CC3)c2c1C(=O)N1CCc2c(ncnc2OC2CC2)C1 | 10 to 100 nM
* Cc1oc2ncnc(NC3(C)CC3)c2c1C(=O)Nc1ccc(C2CCOCC2)cn1 | 10 to 100 nM
* Cc1nccc(N2CCC(NC(=O)c3c(C)oc4ncnc(NC5(C)CC5)c34)CC2)n1 | 100 to 1000 nM
* Cc1oc2ncnc(NC3(C)CC3)c2c1C(=O)NC1(C)CCOCC1 | 10 to 100 nM
* Cc1oc2ncnc(NC3(C)CC3)c2c1C(=O)N1CC[C@@H]2OCC[C@@H]21 | 10 to 100 nM
* Cc1oc2ncnc(NC3(C)CC3)c2c1C(=O)NCc1ccncc1F | 10 to 100 nM
* Cc1oc2ncnc(NC3(C)CC3)c2c1C(=O)N1CCc2nnc(Cl)cc2C1 | 100 to 1000 nM
* CCC(NC(=O)c1c(C)oc2ncnc(NC3(C)CC3)c12)C1CC1 (stereo not shown) | 10 to 100 nM
* Cc1oc2ncnc(NC3(C)CC3)c2c1C(=O)N1CCc2ncc(O)cc2C1 | 100 to 1000 nM
* COCCNC(=O)c1c(C)oc2ncnc(NC3(C)CC3)c12 | 100 to 1000 nM
* Cc1oc2ncnc(NC3(C)CC3)c2c1C(=O)N1CCC2(C1)C(=O)Nc1ccccc12 (stereo not shown) | 10 to 100 nM
* Cc1oc2ncnc(NC3(C)CC3)c2c1C(=O)NC1(C)CCC1 | 10 to 100 nM
* Cc1ccccc1CCNC(=O)c1c(C)oc2ncnc(NC3(C)CC3)c12 | 10 to 100 nM
* Cc1oc2ncnc(NC3(C)CC3)c2c1C(=O)NC(C)(C)c1ccccn1 | 10 to 100 nM
* Cc1oc2ncnc(NC3(C)CC3)c2c1C(=O)N1CCc2cncnc2C1 | 10 to 100 nM
